B1: library; numbered along this chain (parent)
chain: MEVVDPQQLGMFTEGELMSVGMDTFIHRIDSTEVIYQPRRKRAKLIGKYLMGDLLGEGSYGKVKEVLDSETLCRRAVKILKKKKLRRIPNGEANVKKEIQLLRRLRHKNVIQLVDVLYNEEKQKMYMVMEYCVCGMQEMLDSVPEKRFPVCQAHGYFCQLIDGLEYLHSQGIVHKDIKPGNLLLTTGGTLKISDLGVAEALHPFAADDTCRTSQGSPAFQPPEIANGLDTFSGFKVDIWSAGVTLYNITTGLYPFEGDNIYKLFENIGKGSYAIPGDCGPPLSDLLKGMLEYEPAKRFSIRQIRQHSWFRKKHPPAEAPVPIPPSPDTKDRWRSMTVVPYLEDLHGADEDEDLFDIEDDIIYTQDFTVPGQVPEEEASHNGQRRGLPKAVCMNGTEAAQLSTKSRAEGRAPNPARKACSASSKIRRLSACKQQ

Variants of: B1
Protocol notes: STK11 functional score (HeLa growth suppression), rescaled enrichment; synonymous median = 1, nonsense median = 0 (normalised score)
Measurement context: with HeLa; variant type: missense
Measured quantity: STK11 functional score

Reference set (4 entries):
>>> recorded_value("G58E")
1.04
>>> recorded_value("H168S")
0.83
>>> recorded_value("P413S")
1.46
>>> recorded_value("E291D")
1.03

# input variant: E165T ; wanted: its STK11 functional score
0.129

# input variant: T13R ; wanted: its STK11 functional score
1.08

# input variant: P179I ; wanted: its STK11 functional score
0.823

# input variant: I172M ; wanted: its STK11 functional score
0.35

# input variant: G346Y ; wanted: its STK11 functional score
1.57

# input variant: Y362V ; wanted: its STK11 functional score
1.32

# input variant: N393F ; wanted: its STK11 functional score
1.52

# input variant: Q220D ; wanted: its STK11 functional score
0.747
